Cited source: patent US20240317752A1

target: BaF3 BRAF-KIAA1549 fusion cells (Homo sapiens); construct: The BRAF-KIAA1549 fusion mutant was subcloned into pMXs-IRES-Blasticidin (RTV-016, Cell Biolabs, San Diego, CA); fused on or other part: Q9HCM3 (UPF0606 protein KIAA1549); assay: BaF3 BRAF-KIAA1549 fusion cell proliferation assay (CellTiterGlo); type: cell-based; details: 96 hours incubation, potency code
Sequence (P15056 whole entry, change not shown, the tested form may be a part): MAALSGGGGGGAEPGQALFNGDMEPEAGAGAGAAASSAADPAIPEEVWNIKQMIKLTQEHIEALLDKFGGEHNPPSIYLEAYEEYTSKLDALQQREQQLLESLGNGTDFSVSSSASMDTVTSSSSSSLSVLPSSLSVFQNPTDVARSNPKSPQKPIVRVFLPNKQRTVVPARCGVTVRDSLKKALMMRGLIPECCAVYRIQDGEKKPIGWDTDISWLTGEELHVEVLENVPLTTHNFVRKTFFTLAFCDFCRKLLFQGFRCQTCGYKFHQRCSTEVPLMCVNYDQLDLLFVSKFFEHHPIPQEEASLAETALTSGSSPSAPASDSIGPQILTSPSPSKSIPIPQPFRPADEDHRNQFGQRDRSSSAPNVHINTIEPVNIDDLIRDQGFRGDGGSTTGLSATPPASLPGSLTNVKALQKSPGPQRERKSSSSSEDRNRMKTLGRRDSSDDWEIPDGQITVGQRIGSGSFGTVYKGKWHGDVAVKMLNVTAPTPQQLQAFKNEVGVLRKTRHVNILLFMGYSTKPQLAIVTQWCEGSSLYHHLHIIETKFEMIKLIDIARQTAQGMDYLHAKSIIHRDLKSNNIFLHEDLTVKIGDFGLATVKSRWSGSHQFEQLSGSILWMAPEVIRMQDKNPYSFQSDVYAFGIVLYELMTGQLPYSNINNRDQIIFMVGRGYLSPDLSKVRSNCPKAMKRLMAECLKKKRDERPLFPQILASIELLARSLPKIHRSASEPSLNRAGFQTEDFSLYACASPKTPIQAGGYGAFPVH
Below, each entry is listed alongside its reported GI50.

Request: Name the value of GI50 reported for `Cc1ccc(NC(=O)CN2CC[C@H](C(F)(F)F)C2)cc1Nc1ncccc1-c1ncnc2[nH]cnc12` when tested on BaF3 BRAF-KIAA1549 fusion cells (Homo sapiens).
Response: < 20 nM

Request: Would you please give the reported GI50 of Cc1ccc(NC(=O)C[C@H]2CCC[C@H](C(F)(F)F)C2)cc1Nc1ncccc1-c1ncnc2[nH]cnc12 (single isomer, unassigned) with BaF3 BRAF-KIAA1549 fusion cells (Homo sapiens)?
Response: < 20 nM

Request: Report its GI50 with BaF3 BRAF-KIAA1549 fusion cells (Homo sapiens) as the test system: Cc1ccc(NC(=O)CC2CCN(C)CCO2)cc1Nc1ncccc1-c1ncnc2[nH]cnc12 (centres unmarked)
Response: ≥ 500 nM

Request: State the measured GI50 (BaF3 BRAF-KIAA1549 fusion cells (Homo sapiens)) of Cc1ccc(NC(=O)C[C@H]2CCN[C@H](C(F)(F)F)C2)cc1Nc1ncccc1-c1ncnc2[nH]cnc12 (single isomer, unassigned)
Response: 100 to 500 nM

Request: Give reported GI50 for `Cc1ccc(NC(=O)c2cc(C(F)(F)F)cc(OCCO)n2)cc1Nc1ncccc1-c1ncnc2[nH]cnc12` (BaF3 BRAF-KIAA1549 fusion cells (Homo sapiens))
Response: < 20 nM
